# procedure text: soluble on expression in E. coli; label from the status in PepcDB or PDB records
readout name: soluble on expression in E. coli

sequence record: MKAFDQVNHSLLLQKLHDFGINPLFCNWFHDFLSSRTFSVKVNNHIDPNIHPISSGVPKGSVSGPFLFLIFINSLLLSVPPSISCSAFADDLKVYSHSPPLIQTTIDLITTWSENNKLPLAVHKAALLNKLGFSSNCVLLLAPLINSLVCRLLAASRTGVSTVAHSKTCLLHLGKKNPKTVYKINNLPISPSNIARDLGILTDSKLTFKPHIKKIVSLALLRCKQLLKSFKSLCPEFYCNLFKTYILPLIEYGSAVYSPKPSSSLSTLLEKPLRWYSQKVLQKFNVSYSLYNDRLKSLNLHSIRHRRLKSKLILLYKFCCGTSFLRRKETFFKLSTSSRRPMRIICHNPSSNNFFSDTISFWNAITNNCDTFLSPIHFENLVDNSITRL
endpoint value: not soluble
//
sequence record: GPGSMGRERMASSWRMPVYRSWQCSTPWSVSLPHPGPALPTLLVRHVCTPVSVCLYTNLSYCSLHAHNSIERLPPPLHAFVPTTHTHTHKHTYICIYACHSPLLRVSTWTKAFCLILRSRTLSTMSTKYLAAYALASLSKASPSQADVEAICKAVHIDVDQATLAFVMESVTGRDVATLIAEGAAKMSAMPAASSGAAAGVTASAAGDAAPAAAAAKKDEPEEEADDDMGFGLFD
endpoint value: not soluble

---

# procedure text: soluble on expression in E. coli; label from the status in PepcDB or PDB records

sequence record: MGSDKIHHHHHHMKIALIATEKLPVPSVRGGAIQIYLEAVAPLIAKKHEVTVFSIKDPNLADREKVDGVHYVHLDEDRYEEAVGAELKKSRFDLVHVCNRPSWVPKLKKQAPDAVFILSVHNEMFAYDKISQAEGEICIDSVAQIVTVSDYIGQTITSRFPSARSKTKTVYSGVDLKTYHPRWTNEGQRAREEMRSELGLHGKKIVLFVGRLSKVKGPHILLQALPDIIEEHPDVMMVFIGSKWFGDNELNNYVKHLHTLGAMQKDHVTFIQFVKPKDIPRLYTMSDVFVCSSQWQEPLARVHYEAMAAGLPIITSNRGGNPEVIEEGKNGYIIHDFENPKQYAERINDLLSSSEKRERLGKYSRREAESNFGWQRVAENLLSVYEKNR
soluble on expression in E. coli: not soluble
//
sequence record: DWDSREKEAQRVAQRVTARTVSEIEYYHRESTQIAQALVENQARIEGIYKYFSLSMPDYFYWQLERKASPYISVSLYENVDDLYVRNDFVTGVAIAFQDYKEVYVSTKDKRSGEKIRAEDFKPAGNSFAIPVSDPVSDQDLGVIYISLDPAVLYHAIDNTRGHTPMAVTVTSPFDTEIFHMGETVDKESENWLVGLTSHGYQVQVAVPKN
soluble on expression in E. coli: not soluble

---

# procedure text: soluble on expression in E. coli; label from the status in PepcDB or PDB records
readout name: soluble on expression in E. coli

sequence record: MAHHHHHHMKQNGGRETPDGVRYPHIALDVLGQCHSSACVELGNTRVICAVHHPQQLVDEYRGSRGRVACTVRRSASAGSHAAGSAQPSVVTPEKDMSLALEGVAEEVVILEKIPQLLVEVVVEILAEDGGVWDAVATSMSAALVSGGFEMYDLFSACGSALLSDGAVVLDPDAAEESNAQASALVCLMLNSGDICYARHQGSCEPGTVLELVSSAMKGCLSRKSAITTQLINHPIL
soluble on expression in E. coli: not soluble
//
sequence record: MGLLAHFLKGPHKKTTLLLTRAGPVENPRHVLYSHPGLPLSPKGRSALLALLPLLQGFPVAHVYAADSLAEAEAARLFAEALGVPYTLLPELRERAWGAWEGLSFPEVEARFPGAVAAWTADEAGFAPPGGESVREAWERGRRAVKALLGKHRGQAILVVGNCTLNRAALSLALPLPPEEGLRLEQDYARLSVVDFYGEEGVVKALNLAVDWGHDPARGPQGPPGAS
soluble on expression in E. coli: soluble
//
sequence record: MKAKTLIDAYEAFCPLDLSMEGDVKGLQMGSLDKDIRKVMITLDIRESTVAEAIKNEVDLIITKHAPIFKPLKDLVSSPQRDILLDLVKHDISVYVSHTNIDIVPGGLNDWFCDLLEIKEATYLSETKEGFGIGRIGTVKEQALEELASKVKRVFDLDTVRLIRYDKENPLISKIAICGGSGGEFYQDAVQKGADVYITGDIYYHTAQEMLTEGLFAVDPGHHIEVLFTEKLKEKLQGWKEENGWDVSIISSKASTNPFSHL
soluble on expression in E. coli: not soluble
//
sequence record: MANIEIYTKATCPFCHRAKALLNSKGVSFQEIAIDGDAVKREEMIKRSGRTTVPQIFIDAQHIGGCDDLYALDARGGLDPLLR
soluble on expression in E. coli: not soluble
//
sequence record: MGSDKIHHHHHHMRLPLNQRVAILLHEGTTGTIGKTGLALLRYSEAPIVAVIDRNCAGQSLREITGIYRYVPIVKSVEAALEYKPQVLVIGIAPKGGGIPDDYWIELKTALQAGMSLVNGLHTPLANIPDLNALLQPGQLIWDVRKEPANLDVASGAARTLPCRRVLTVGTDMAIGKMSTSLELHWAAKLRGWRSKFLATGQTGVMLEGDGVALDAVRVDFAAGAVEQMVMRYGKNYDILHIEGQGSLLHPGSTATLPLIRGSQPTQLVLVHRAGQTHNGNNPHVPIPPLPEVIRLYETVASGGGAFGTVPVVGIALNTAHLDEYAAKEAIAHTIAETGLPCTDVVRFGADVLLDAVMQN
soluble on expression in E. coli: not soluble

Form field: reported soluble on expression in E. coli of MLEQIQQALAGDQEQFQALYGQYQPVIYKCMKKYYLKDYDTEDWLQEGRIVFFRTLERFDSEKQASLGKFFKRNFENHVHSLIRHQCAYKRRTDTLSISLEQRLESAGEELVDYLGTAATDPLGQLMIQEKLAAFPTRLSSLEQQILNAYLKGYTLEEIAKVRGGTFSAVRSAYDRAKAKMKYTLENE
not soluble

What does the data say about its soluble on expression in E. coli? Entry: GVFTFEDEINSPVAPATLYKALVTDADNVIPKALDSFKSVENVEGNGGPGTIKKITFLEDGETKFVLHKIESIDEANLGYSYSVVGGAALPDTAEKITFDSKLVAGPNGGSAGKLTVKYETKGDAEPNQDELKTGKAKADALFKAIEAYLLAHPDYN
soluble

---

# procedure text: soluble on expression in E. coli; label from the status in PepcDB or PDB records
readout name: soluble on expression in E. coli

sequence record: MEKSVSVILLAGGQGKRMKMSMPKQYIPLLGQPIALYSFFTFSRMPEVKEIVVVCDPFFRDIFEEYEESIDVDLRFAIPGKERQDSVYSGLQEIDVNSELVCIHDSARPLVNTEDVEKVLKDGSAVGAAVLGVPAKATIKEVNSDSLVVKTLDRKTLWEMQTPQVIKPELLKKGFELVKSEGLEVTDDVSIVEYLKHPVYVSQGSYTNIKVTTPDDLLLAERILSEDS
endpoint value: soluble
//
sequence record: MSLTEDVTSQTSESLARHSVLAEDLSQDGLTSLGAPGARVLLVWDAPNLDMGLGSILGRRPTALERPRFDALGRWLLARTAEIVAGRPGISTEPEATVFTNIAPGSAEVVRPWVDALRNVGFAVFAKPKVDEDSDVDRDMLAHIDERYREGLAALVVASADGQAFRQPLEAVARSGTPVQVLGFREHASWALASDTLEFVDLEDIAGVFREPLPRIGLDSLPEQGAWLQPFRPLSSLLTSRV
endpoint value: soluble

---

# procedure text: soluble on expression in E. coli; label from the status in PepcDB or PDB records

sequence record: MGSDKIHHHHHHMYLIRKKYITSLENILKKEGVIVDALSNDATIRYRSEEIGDEFTSVYNIQKLLNIAYASQGKESFGLLSYEYFHPGDYDIVNYIMMSSDNLLHALECLCRFSRLLYSGCQLTLDKKNTNTYCIGFTYLYPQDKNKEITRQFHELTVASLLAYCQWLTAANFTHFSSMEFSYPQPYGIRKYETLFACPMTFGTHRNCVYLNAEILLMPLVTSNASLFKLHEKHATCLIDILFNKTIKSRVRDSINKKLETGSCNIHSVASDLFMTPRTLQRRLEEEGAYFKDILEDVKMNLAEYYLIYSQYSLSQVAELVGYKDLSSFHRACLRWFRSSPGFFRERGCKKACLPMK
soluble on expression in E. coli: not soluble
--
sequence record: MDIRKEFEHLQYFFDSYYNQTFYNAQLEEQFLRFLADEPEWVVRALKLEVEKLERIHHRRDTETWAKIEELVHENSMRYFSFEDGKTFIKVASLLLKDID
soluble on expression in E. coli: not soluble

---

# procedure text: soluble on expression in E. coli; label from the status in PepcDB or PDB records
readout name: soluble on expression in E. coli

sequence record: VHVEDALTYLDQVKIRFGSDPATYNGFLEIMKEFKSQSIDTPGVIRRVSQLFHEHPDLIVGFNAFLP
soluble on expression in E. coli: soluble

sequence record: MKEDWPEPVKEYNTGQVLFDRLELTRTNEEENLAVWDMIAWYGGDYHRAVFKSEGENVQDDGEPTDLERAELLYGYLVSPFWSFQAGIGTRGTLSSDASMENYAVVSFMGLAPYWFEMDNSLMVNEEGDVQFVSETEYEWQLTQTSYLQPRIELTANLTDSDKYERQSGLSNLRVGLRYRHEISREFAPYIGVYWNGALGNTADEMKRMGKDTTETGVVLGARVWFLEHHHHHH
soluble on expression in E. coli: not soluble

sequence record: MGSDKIHHHHHHMLQPHEMHLAGDLLDFLRDPSTAIARDFATQATLMRIASGATVFAEGDECSFFAILADGQIRVFKIGETGREITLYRFGRGESCILTTSCVLSNHQFPAIAVVEREATAFLVGQAIFRDWIERYSAWRDYVFQLLSRRLASVMAIIDEIAFRRVDVRLAAFLLRQAVGDPPTLNLTHQQIAAELGTSREVVSRILADFSEEGLISSSRGQITVCDRTRLYQRSEAR
soluble on expression in E. coli: not soluble

sequence record: MIFYLLPSEKKQSTMDLVKEDYFSIWENREKNRFPELNPYRKELIEYFKVETKPLAPAWRRYNGKFWDSLEFWCLPPEVQQNIIDRGIIISPLFGMLGVNDPIPRYSVTFQDKYKGKKLTEFWKEVLKDISKKMFESSVIFDFLTTEQRETLTFPEDVTFVRFDYIRKGKKVVNPMPHRAYTLRYIVEKNVDLNSLEKINFYDYKVSKIEKEGNVIRVIMESEGRYI
soluble on expression in E. coli: not soluble

sequence record: IEETGTVIIAGIGRFGQIVNRLLVSNGVTTVVLDHQANQVDNMRQIGTRAYFGDATRPDMLHTAGIEHAAALVVAIDNQESSVELVKYVKHTYPKVKIIARAFDRGHGYLLRQAGADVIESETYHSALEMGGHAMKALGI
soluble on expression in E. coli: not soluble

sequence record: MSITDVLSADDIAAALQECRDPDTFEPQKFFQTSGLSKMSANQVKDVFRFIDNDQSGYLDEEELKFFLQKFESGARELTESETKSLMAAADNDGDGKIGAEEFQEMVHS
soluble on expression in E. coli: soluble

sequence record: MSLGRVTITAVAREAGVSAITVSRYFNQPEQVSPELRERIAAVVNALGYVPNLVAGGLASARSRVVAMVIPNISGPIFANTIQGFSDTLSQHGFQLLLASSYFSAEQEESAVRAFLGWSPAALVLTSRFHSPATEKMIEQTDVPVIETWDHQPERSPIQIGFSHYDVGVTAARYLYDKGYRRIAFVQNSIAGDFSALERRDGYIATLEGLGIKPWVFVPDAGRAPFEAGKQAMETLMSQTPRPDAIFFANDNLAAGALLASQRAGLHIPKDCAVMGFGDYAFAEMMLPSLTTIKPPALEIGVLAATRVLESLGVLPVEGDIQRLNLLECRLVERESTEGHHHHHH
soluble on expression in E. coli: soluble

Now take the following sequence into account.
Form field: reported soluble on expression in E. coli of MTTPSMEMYIEQIYMLIEEKGYARVSDIAEALAVHPSSVTKMVQKLDKDEYLIYEKYRGLVLTSKGKKIGKRLVYRHELLEQFLRIIGVDEEKIYNDVEGIEHHLSWNSIDRIGDLVQYFEEDDARKKDLKSIQKKTEHHNQ
soluble

Entry source: the DeepSol protein solubility set
